Cited source for all entries: paper PMC6530907

Please provide measured MIC potency compared to 1 (decrease) for the entries that follow.
Tested on: Msm ΔEM-pMbtAtb
Protocol: microbe, parasite or virus in culture
Type: cell-based, Mycobacterium smegmatis
Reported conditions: Fe-limiting media
Give the quantity in fold, number only.

Tell me the measured MIC potency compared to 1 (decrease) of Nc1ncnc2c1ncn2[C@H]1C[C@H](O)[C@@H](COS(=O)(=O)NC(=O)c2ccccc2O)O1 , please. 6

Return reported MIC potency compared to 1 (decrease); argument: O=C(NS(=O)(=O)OC[C@H]1O[C@@H](n2cnc3c(NC4CC4)ncnc32)[C@H](O)[C@@H]1O)c1ccccc1O 6

Which measured MIC potency compared to 1 (decrease) value corresponds to COc1ncnc2c1ncn2[C@@H]1O[C@H](CNS(=O)(=O)NC(=O)c2ccccc2O)[C@@H](O)[C@H]1O ? 6
